# protocolSummary: Agonist activity at LXR in human U937 cells assessed as upregulation of FASN mRNA levels at 10 uM after 6 hrs by qPCR analysis
# Format: cell-based

compound: CC(C)[C@@H](C)[C@H](O)C[C@@H](C)[C@H]1CC[C@H]2C3=CC=C4C[C@@H](O)CC[C@]4(C)[C@H]3CC[C@]12C
Activity: Not Active
//
compound: CC[C@@H](C(C)C)[C@@H]1O[C@H]1[C@@H](C)[C@H]1CC[C@H]2[C@@H]3CC=C4C[C@@H](O)CC[C@]4(C)[C@H]3CC[C@]12C
Activity: Not Active
//
compound: CC[C@@H](C(C)C)[C@H]1O[C@@H]1[C@@H](C)[C@H]1CC[C@H]2[C@@H]3CC=C4C[C@@H](O)CC[C@]4(C)[C@H]3CC[C@]12C
Activity: Not Active
//
compound: O=S(=O)(c1ccccc1)N(CC(F)(F)F)c1ccc(C(O)(C(F)(F)F)C(F)(F)F)cc1 [T091317]
Activity: Not Active
//
compound: CC[C@H](C[C@H](O)[C@@H](C)[C@H]1CC[C@H]2[C@@H]3CC=C4C[C@@H](O)CC[C@]4(C)[C@H]3CC[C@]12C)C(C)C
Activity: Not Active
//
compound: CC(C)[C@@H](C)C[C@@H](O)[C@@H](C)[C@H]1CC[C@H]2C3=CC=C4C[C@@H](O)CC[C@]4(C)[C@H]3CC[C@]12C
Activity: Not Active
